target: Aldo-keto reductase family 1 member C2 (Homo sapiens, UniProt P52895); test: Inhibition of recombinant AKR1C2 (unknown origin) assessed as decrease in oxidation of 1-acenaphthenol substrate by spectrophotometric analysis
Sequence (P52895 whole entry): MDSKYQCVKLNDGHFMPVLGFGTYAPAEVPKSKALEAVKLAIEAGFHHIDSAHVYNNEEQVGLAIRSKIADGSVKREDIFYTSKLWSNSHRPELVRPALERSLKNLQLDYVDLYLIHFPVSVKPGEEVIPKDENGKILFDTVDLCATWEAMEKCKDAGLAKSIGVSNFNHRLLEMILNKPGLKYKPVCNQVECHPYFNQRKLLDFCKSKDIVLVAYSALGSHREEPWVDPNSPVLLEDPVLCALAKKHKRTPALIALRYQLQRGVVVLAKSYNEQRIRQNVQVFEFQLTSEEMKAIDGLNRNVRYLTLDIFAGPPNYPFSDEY
pIC50: −log10 of the molar value.
Value Type: pIC50

query: Fill in pIC50 for CS(=O)(=O)c1ccc(/C=C(/C(=O)O)c2cccc(Cl)c2)cc1 tested with Aldo-keto reductase family 1 member C2 (Homo sapiens, UniProt P52895).
result: 4.64

query: Fill in pIC50 for CSc1ccc(/C=C(/C(=O)O)c2ccccc2)cc1 tested with Aldo-keto reductase family 1 member C2 (Homo sapiens, UniProt P52895).
result: 4.39

query: Fill in pIC50 for CSc1ccc(/C=C(/C(=O)O)c2ccc(Cl)cc2)cc1 tested with Aldo-keto reductase family 1 member C2 (Homo sapiens, UniProt P52895).
result: 4.56

query: Fill in pIC50 for CS(=O)(=O)c1ccc(/C=C(/C(=O)O)c2ccc(Cl)cc2)cc1 tested with Aldo-keto reductase family 1 member C2 (Homo sapiens, UniProt P52895).
result: 4.57

====

Target: Aldo-keto reductase family 1 member C1 (Homo sapiens) (UniProt Q04828)
Sequence (whole entry): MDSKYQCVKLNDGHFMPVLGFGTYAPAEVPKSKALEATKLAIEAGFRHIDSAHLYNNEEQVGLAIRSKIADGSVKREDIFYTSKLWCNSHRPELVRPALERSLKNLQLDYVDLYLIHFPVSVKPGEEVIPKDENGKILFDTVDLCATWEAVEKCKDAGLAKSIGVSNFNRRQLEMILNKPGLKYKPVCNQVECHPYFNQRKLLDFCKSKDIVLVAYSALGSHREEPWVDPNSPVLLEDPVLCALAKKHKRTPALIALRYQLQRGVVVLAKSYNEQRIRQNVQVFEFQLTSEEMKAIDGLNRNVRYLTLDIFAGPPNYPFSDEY
Test: Inhibition of human recombinant AKR1C1 expressed in Escherichia coli assessed as decrease in oxidation of 1-acenaphthenol substrate at 100 uM by spectrophotometric analysis
The compounds listed here are annotated with their inhibition.

query: Please indicate inhibition recorded for COc1cc(/C(=C\c2cccc3ccccc23)C(=O)O)cc(OC)c1OC
result: 6.4%

query: Please indicate inhibition recorded for COc1cc(/C(=C\c2cccc(F)c2)C(=O)O)cc(OC)c1OC
result: 7.8%

Now let's try a different one.
query: Please indicate inhibition recorded for CS(=O)(=O)c1ccc(/C=C(/C(=O)O)c2cccc(Cl)c2)cc1
result: 75.9%
